system: KB-3-1; experiment: Cytotoxic Profiling of Annotated Libraries Using Quantitative High-Throughput Screening (AID 1296008); conditions: Five cell lines viability, CellTiter-Glo ATP luminescence, 48-72 h; further: nearly all actives have a fitted effect of over 60% in size
Results filed as inconclusive are left out. The source made the active and inactive calls. The call rests on the fitted dose curve; in most records, active means well fitted inhibition curve with a large enough effect; inconclusive means small, poorly fitted or top-dose-only effect; inactive means flat fitted curve, though single readings scatter.
Outcomes: Y = active, N = inactive

{"columns": ["MOLECULE", "GROUP LABEL"],
 "data": [
  ["CC1(C)CC[C@]2(C(=O)O[C@@H]3O[C@H](CO)[C@@H](O)[C@H](O)[C@H]3O)CC[C@]3(C)C(=CCC4[C@@]5(C)CC[C@H](O[C@@H]6O[C@H](C(=O)O)[C@H](O)[C@H](O)[C@H]6O)C(C)(C)C5CC[C@]43C)[C@@H]2C1 (stereo partly specified)", "N"],
  ["C=C1C(=O)O[C@@H]2C[C@H](C)[C@@H]3CC(=O)[C@H](O)[C@@]3(C)C[C@H]12", "N"],
  ["CC(O)(C(=O)C1CC1(CO)COC1OC(CO)C(O)C(O)C1O)C1C(O)CC2C3CC=C4CC(O)CC(O)C4(C)C3C(O)CC21C (stereo unspecified)", "Y"],
  ["CCN(CC)C(=O)C(c1ccccc1)N1CCN(c2ccc(NC(=O)c3ccccc3-c3cccnc3)cc2F)CC1 (stereo unspecified)", "N"],
  ["C=C1C(=O)O[C@@H]2C[C@@]3(C)C[C@@H](O)C[C@H](C)C3=C[C@H]12", "N"],
  ["COc1cccc(CN(C(=O)CC(C)(C)C)[C@H]2C[C@H](C(=O)N3CCNCC3)N(Cc3ccc4c(c3)OCO4)C2)c1", "N"]
]}

* * *

test system: Hek293T; test: Primary qHTS to identify gynecologic anti-cancer compounds using libraries of approved drugs and bioactive compounds (AID 1345084); settings: Gynecologic cancer cell panel viability, ATPlite luminescence, 48 h, control line for the selectivity index; series mostly up to 57.5 µM; further: nearly all actives have a fitted effect of over 55% in size; further: potency means the concentration at half of the fitted maximal effect
Records with an inconclusive call do not appear. Calls of active or inactive are those of the source. The call rests on the fitted dose curve; in most records, active means well fitted cell-killing curve with a large enough effect; inconclusive means small, poorly fitted or top-dose-only effect, or effect the other way; inactive means flat fitted curve, though single readings scatter.
MEASURED QUANTITY: Potency

{"columns": ["MOLECULE", "TARGET OR SYSTEM", "MEASURED"],
 "data": [
  ["CC(=O)OC/C(=C/C(=O)O)CC[C@@H]1C(C=O)=CC[C@@H]2C(C)(C)CCC[C@@]12C", "Hek293T", "inactive"],
  ["COc1ccc2nc(-c3cc(OC)c(OC)c(OC)c3)cc(C(=O)NCC(=O)Nc3ccc(C(C)=O)cc3)c2c1", "Hek293T", "inactive"],
  ["C=C1C(=O)O[C@@H]2C3C(=C(C)[C@@H](O)[C@@H](OC(=O)/C(=C/C)COC(C)=O)[C@@H]12)C(=O)[C@H]1O[C@@]31C (stereo partly drawn)", "Hek293T", "7.94 µM (active)"],
  ["CC(=O)O[C@@H]1CC2C(/C=C(\\C)C(=O)[C@@]3(O)C[C@@H](C)[C@H](OC(=O)c4ccccc4)C3/C=C/1C)C2(C)C (stereo partly drawn)", "Hek293T", "inactive"],
  ["CC(=O)O[C@@H]1C[C@@]2(C)C(CC[C@]3(C)C2CC=C2C4CC(C)(C)CC[C@]4(C(=O)O)CC[C@]23C)C(C)(C)[C@H]1O (stereo partly drawn)", "Hek293T", "inactive"],
  ["Cc1nc(NC(=O)N2CCCC2C(N)=O)sc1-c1ccnc(C(C)(C)C(F)(F)F)c1 (stereo not drawn)", "Hek293T", "inactive"],
  ["CCCCNc1ncc(C(=O)NCc2ccc(-n3ccnc3)cc2)c(NC2CCC(O)CC2)n1 (stereo not drawn)", "Hek293T", "inactive"],
  ["NC(=O)c1cccc2[nH]c(-c3ccc(C4CCCN4)cc3F)nc12 (stereo not drawn)", "Hek293T", "12.6 µM (active)"]
]}
